Assay: Oral bioavailability in rat at 3 mg/kg
Format: ADME, organism-based
Settings: in vivo
Measure Name: bioavailability (%)
Write the value in % as a bare number.

Exercise: I'd like to know its bioavailability. The compound in question is CC(C)[C@]1(C(=O)NCc2cc(C(F)(F)F)cc(C(F)(F)F)c2)CC[C@@H](N2CCC(c3cncnc3)CC2)C1 (relative stereo)
Key: 33

###

Biological target: C-C chemokine receptor type 2 (Homo sapiens)
Sequence (P41597 whole entry): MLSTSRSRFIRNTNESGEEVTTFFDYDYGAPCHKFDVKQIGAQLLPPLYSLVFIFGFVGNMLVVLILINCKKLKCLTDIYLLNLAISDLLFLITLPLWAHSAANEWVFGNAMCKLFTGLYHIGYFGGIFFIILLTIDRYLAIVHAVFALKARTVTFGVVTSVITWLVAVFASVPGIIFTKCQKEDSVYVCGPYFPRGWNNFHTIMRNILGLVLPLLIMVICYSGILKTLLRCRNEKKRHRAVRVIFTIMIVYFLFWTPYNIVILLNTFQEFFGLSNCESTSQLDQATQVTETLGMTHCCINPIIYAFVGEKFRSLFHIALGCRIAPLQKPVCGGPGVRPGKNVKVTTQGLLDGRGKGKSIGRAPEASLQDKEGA
Assay: Displacement of [125I]MCP1 from CCR2 receptor in human monocytes
Measure Name: pIC50
Units for pIC50: none; it is -log10 of a concentration expressed in mol/L.

Molecule | Result
CC(C)[C@]1(C(=O)NCc2cc(C(F)(F)F)cc(C(F)(F)F)c2)CC[C@@H](N2CCC(c3cccc(C(=O)O)c3)CC2)C1 (single isomer, unassigned) | 7.39
CC(C)(O)[C@]1(C(=O)NCc2cc(C(F)(F)F)cc(C(F)(F)F)c2)CC[C@@H](N2CCC(c3ccc(F)cc3)CC2)C1 | 8.89
CC(C)[C@]1(C(=O)NCc2cc(C(F)(F)F)cc(C(F)(F)F)c2)CC[C@@H](N2CCC(c3ccnnc3)CC2)C1 (single isomer, unassigned) | 7.19
CC(C)[C@]1(C(=O)NCc2cc(C(F)(F)F)cc(C(F)(F)F)c2)CC[C@@H](N2CCC(c3cccc(C(=O)O)c3)CC2)C1 | 7.21

Exercise: API: value(readout= pIC50, system= C-C chemokine receptor type 2 (Homo sapiens), query= `CC(C)(O)[C@]1(C(=O)NCc2cc(C(F)(F)F)cc(C(F)(F)F)c2)CC[C@@H](N2CCC(c3cncnc3)CC2)C1` )
Key: 8.22

Exercise: API: value(readout= pIC50, system= C-C chemokine receptor type 2 (Homo sapiens), query= CC(C)[C@]1(C(=O)NCc2cc(C(F)(F)F)cc(C(F)(F)F)c2)CC[C@@H](N2CCC(c3cccc(O)c3)CC2)C1 (single isomer, unassigned) )
Key: 8.22

Exercise: API: value(readout= pIC50, system= C-C chemokine receptor type 2 (Homo sapiens), query= CC(C)[C@]1(C(=O)NCc2cc(C(F)(F)F)cc(C(F)(F)F)c2)CC[C@@H](N2CCC(c3ccncn3)CC2)C1 (single isomer, unassigned) )
Key: 7.36

Exercise: API: value(readout= pIC50, system= C-C chemokine receptor type 2 (Homo sapiens), query= CC(C)[C@]1(C(=O)NCc2cc(C(F)(F)F)cc(C(F)(F)F)c2)CC[C@@H](N2CCC(c3cccc(F)c3)CC2)C1 (single isomer, unassigned) )
Key: 8.40

Exercise: API: value(readout= pIC50, system= C-C chemokine receptor type 2 (Homo sapiens), query= CC(C)[C@]1(C(=O)NCc2cc(C(F)(F)F)cc(C(F)(F)F)c2)CC[C@@H](N2CCC(c3ccc(Cl)nn3)CC2)C1 (single isomer, unassigned) )
Key: 6.78

Exercise: API: value(readout= pIC50, system= C-C chemokine receptor type 2 (Homo sapiens), query= `CC(C)[C@]1(C(=O)NCc2cc(C(F)(F)F)cc(C(F)(F)F)c2)CC[C@@H](N2CCC(c3ccc(F)cc3)CC2)C1` )
Key: 8.52

###

Experiment: Clearance in rat at 3 mg/kg, po
Type: ADME, organism-based
Set-up: dose 3 mg/kg, route oral
Settings: in vivo
Measure Name: CL/F (mL/min/kg)
Write the value in mL/min/kg as a bare number.

Exercise: I'd like to know its CL/F. The molecule in question is CC(C)[C@]1(C(=O)NCc2cc(C(F)(F)F)cc(C(F)(F)F)c2)CC[C@@H](N2CCC(c3cncnc3)CC2)C1 (relative stereo)
Key: 7

###

Experiment: Half life in rat at 3 mg/kg, po
Format: ADME, organism-based
Parameters: dose 3 mg/kg, route oral
Conditions: in vivo
Measure Name: half-life
The answer should read as a number with its unit following.

Exercise: I'd like to know its half-life. The compound in question is CC(C)[C@]1(C(=O)NCc2cc(C(F)(F)F)cc(C(F)(F)F)c2)CC[C@@H](N2CCC(c3cncnc3)CC2)C1 (relative stereo)
Key: 3.8 h

###

// reported Activity for each item listed
Biological target: UniProt P51681
Sequence (P51681 whole entry, looked up): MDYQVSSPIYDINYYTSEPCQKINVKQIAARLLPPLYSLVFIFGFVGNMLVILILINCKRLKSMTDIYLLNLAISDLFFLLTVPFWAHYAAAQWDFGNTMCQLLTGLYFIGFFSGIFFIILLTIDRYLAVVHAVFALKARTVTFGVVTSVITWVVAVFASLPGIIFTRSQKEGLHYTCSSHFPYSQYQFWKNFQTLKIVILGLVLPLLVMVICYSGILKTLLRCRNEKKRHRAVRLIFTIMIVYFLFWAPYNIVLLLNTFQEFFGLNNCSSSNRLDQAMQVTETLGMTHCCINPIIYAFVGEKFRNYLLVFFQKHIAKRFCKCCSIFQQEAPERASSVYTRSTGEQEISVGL
Test: Inhibition of CCR5 at 1 uM
Design: scale not given: the % may be the effect or the level left

Some entries whose results are on file:
Smiles Repr | Result
CC(C)[C@]1(C(=O)NCc2cc(C(F)(F)F)cc(C(F)(F)F)c2)CC[C@@H](N2CCC(c3ccc(F)cc3)CC2)C1 | 69%
CC(C)[C@]1(C(=O)NCc2cc(C(F)(F)F)cc(C(F)(F)F)c2)CC[C@@H](N2CCC(c3cncnc3)CC2)C1 | 3%
CC(C)(O)[C@]1(C(=O)NCc2cc(C(F)(F)F)cc(C(F)(F)F)c2)CC[C@@H](N2CCC(c3ccc(F)cc3)CC2)C1 | 69%

For the next question, use this compound.
Exercise: I'd like to know its Activity. The compound in question is `CC(C)(O)[C@]1(C(=O)NCc2cc(C(F)(F)F)cc(C(F)(F)F)c2)CC[C@@H](N2CCC(c3cncnc3)CC2)C1`
Key: 3%

###

// reported pIC50 for each item listed
Molecular target: UniProtKB P41597
Assay: Displacement of [125I]MCP1 from CCR2 receptor in human monocytes
Format: cell-based
Units for pIC50: none; it is -log10 of a concentration expressed in mol/L.

Molecule | Result
CC(C)[C@]1(C(=O)NCc2cc(C(F)(F)F)cc(C(F)(F)F)c2)CC[C@@H](N2CCC(c3cncnc3)CC2)C1 | 8.30
CC(C)[C@]1(C(=O)NCc2cc(C(F)(F)F)cc(C(F)(F)F)c2)CC[C@@H](N2CCC(c3cccnc3)CC2)C1 (relative stereo) | 8.22
CC(C)[C@]1(C(=O)NCc2cc(C(F)(F)F)cc(C(F)(F)F)c2)CC[C@@H](N2CCC(c3cncnc3)CC2)C1 (relative stereo) | 7.92

Exercise: API: value(readout= pIC50, system= UniProtKB P41597, query= CC(C)[C@]1(C(=O)NCc2cc(C(F)(F)F)cc(C(F)(F)F)c2)CC[C@@H](N2CCC(c3cccnn3)CC2)C1 (single isomer, unassigned) )
Key: 7.30

Exercise: API: value(readout= pIC50, system= UniProtKB P41597, query= CC(C)[C@]1(C(=O)NCc2cc(C(F)(F)F)cc(C(F)(F)F)c2)CC[C@@H](N2CCC(c3ncccn3)CC2)C1 (single isomer, unassigned) )
Key: 6.84

Exercise: API: value(readout= pIC50, system= UniProtKB P41597, query= COc1cccc(C2CCN([C@@H]3CC[C@@](C(=O)NCc4cc(C(F)(F)F)cc(C(F)(F)F)c4)(C(C)C)C3)CC2)c1 (single isomer, unassigned) )
Key: 8.22

Values from ChEMBL document CHEMBL1140833
